# Test system: UACC-62 melanoma
# assayProcedure: NCI tumour cell line growth inhibition, 384-well format
parameter: GI50

GI50 for Cc1c(Br)c(Br)c2c3c1nc(N1CCNCC1)n3CCC2 is 1.48 µM

GI50 for CN1C(=O)[C@@H](CC2CCCC2)N(C2CCCC2)c2nc(Nc3cc(Cl)c(O)c(Cl)c3)ncc21 is 8.84 µM

GI50 for Cc1ncnc2c1ccn2[C@@H]1C[C@H](Oc2cc(C(F)F)c(F)c3c2CNCC3)[C@@H](O)[C@H]1O is 12.5 µM

GI50 for CN(C)C/C=C/C(=O)Nc1ccc(C(=O)Nc2cccc(Nc3ncc(Cl)c(-c4c[nH]c5ccccc45)n3)c2)cc1 is < 0.01 µM

GI50 for Cn1cc(Nc2nccc(-c3ccc4c(c3)CN(C3COC3)CC[C@H]4NC(=O)c3cn(C(C)(C)C)nn3)n2)cn1 is 27.3 µM

----------
For each of the molecules below, state its GI50.
# System: M14 melanoma
# assayProcedure: NCI tumour cell line growth inhibition, 384-well format

GI50 for Cc1ncnc2c1ccn2[C@@H]1C[C@H](Oc2cc(C(F)F)c(F)c3c2CNCC3)[C@@H](O)[C@H]1O is 18.4 µM

GI50 for CN1C(=O)[C@@H](CC2CCCC2)N(C2CCCC2)c2nc(Nc3cc(Cl)c(O)c(Cl)c3)ncc21 is 6.27 µM

GI50 for Cn1ccc(S(=O)(=O)N2CCC[C@H](Nc3nccc(-c4c(-c5cccc(O)c5)nc5occn45)n3)C2)n1 is < 0.01 µM

GI50 for CCNCCS(=O)(=O)NC[C@@]1(c2ccccc2)SC(NC(=O)C(C)(C)C)=NN1C(=O)C(C)(C)C is < 0.01 µM

----------
# Tested on: BT-549 breast
# assayProcedure: NCI tumour cell line growth inhibition, 384-well format
For each of the molecules below, state its TGI.

TGI for Cc1ncnc2c1ccn2[C@@H]1C[C@H](Oc2cc(C(F)F)c(F)c3c2CNCC3)[C@@H](O)[C@H]1O is > 100 µM

TGI for CN(C)C/C=C/C(=O)Nc1ccc(C(=O)Nc2cccc(Nc3ncc(Cl)c(-c4c[nH]c5ccccc45)n3)c2)cc1 is 0.0137 µM

TGI for CN1C(=O)[C@@H](CC2CCCC2)N(C2CCCC2)c2nc(Nc3cc(Cl)c(O)c(Cl)c3)ncc21 is 17.5 µM

TGI for CCNCCS(=O)(=O)NC[C@@]1(c2ccccc2)SC(NC(=O)C(C)(C)C)=NN1C(=O)C(C)(C)C is 58.9 µM

----------
# System: NCI-H522 lung
# assayProcedure: NCI tumour cell line growth inhibition, 384-well format; in the data active = GI50 below about 0.43 µM; inactive = the rest
Classes to choose from: active, inactive

Field: outcome | Entry: CN1C(=O)[C@@H](CC2CCCC2)N(C2CCCC2)c2nc(Nc3cc(Cl)c(O)c(Cl)c3)ncc21
inactive

Field: outcome | Entry: Cc1ncnc2c1ccn2[C@@H]1C[C@H](Oc2cc(C(F)F)c(F)c3c2CNCC3)[C@@H](O)[C@H]1O
inactive

Field: outcome | Entry: Cc1c(Br)c(Br)c2c3c1nc(N1CCNCC1)n3CCC2
active

Field: outcome | Entry: Cn1ccc(S(=O)(=O)N2CCC[C@H](Nc3nccc(-c4c(-c5cccc(O)c5)nc5occn45)n3)C2)n1
inactive

----------
# Tested on: U251 glioblastoma
# assayProcedure: NCI tumour cell line growth inhibition, 384-well format; in the data active means GI50 below about 0.43 µM; inactive means the rest
Classes to choose from: active, inactive

Field: outcome | Entry: Cc1c(Br)c(Br)c2c3c1nc(N1CCNCC1)n3CCC2
inactive

Field: outcome | Entry: Cn1cc(Nc2nccc(-c3ccc4c(c3)CN(C3COC3)CC[C@H]4NC(=O)c3cn(C(C)(C)C)nn3)n2)cn1
inactive

Field: outcome | Entry: CN(C)C/C=C/C(=O)Nc1ccc(C(=O)Nc2cccc(Nc3ncc(Cl)c(-c4c[nH]c5ccccc45)n3)c2)cc1
active

Field: outcome | Entry: Cn1ccc(S(=O)(=O)N2CCC[C@H](Nc3nccc(-c4c(-c5cccc(O)c5)nc5occn45)n3)C2)n1
inactive

----------
# Tested on: KM12 colon
# assayProcedure: NCI tumour cell line growth inhibition, 384-well format
For each of the compounds below, state its TGI.

TGI for CCNCCS(=O)(=O)NC[C@@]1(c2ccccc2)SC(NC(=O)C(C)(C)C)=NN1C(=O)C(C)(C)C is > 100 µM

TGI for Cn1cc(Nc2nccc(-c3ccc4c(c3)CN(C3COC3)CC[C@H]4NC(=O)c3cn(C(C)(C)C)nn3)n2)cn1 is > 100 µM

TGI for CN1C(=O)[C@@H](CC2CCCC2)N(C2CCCC2)c2nc(Nc3cc(Cl)c(O)c(Cl)c3)ncc21 is 24.6 µM

TGI for CN(C)C/C=C/C(=O)Nc1ccc(C(=O)Nc2cccc(Nc3ncc(Cl)c(-c4c[nH]c5ccccc45)n3)c2)cc1 is 0.0411 µM

----------
For each of the compounds below, state its TGI.
# System: UACC-62 melanoma
# assayProcedure: NCI tumour cell line growth inhibition, 384-well format
Please respond with the number in µM and leave the unit unwritten.

TGI for Cc1ncnc2c1ccn2[C@@H]1C[C@H](Oc2cc(C(F)F)c(F)c3c2CNCC3)[C@@H](O)[C@H]1O is 53.3

TGI for CN1C(=O)[C@@H](CC2CCCC2)N(C2CCCC2)c2nc(Nc3cc(Cl)c(O)c(Cl)c3)ncc21 is 23.2

TGI for CN(C)C/C=C/C(=O)Nc1ccc(C(=O)Nc2cccc(Nc3ncc(Cl)c(-c4c[nH]c5ccccc45)n3)c2)cc1 is 0.0187

----------
# System: M14 melanoma
# assayProcedure: NCI tumour cell line growth inhibition, 384-well format
parameter: TGI (µM)
Please respond with the number in µM and leave the unit unwritten.

TGI for Cc1c(Br)c(Br)c2c3c1nc(N1CCNCC1)n3CCC2 is 2.88

TGI for Cc1ncnc2c1ccn2[C@@H]1C[C@H](Oc2cc(C(F)F)c(F)c3c2CNCC3)[C@@H](O)[C@H]1O is 38.4

TGI for CN1C(=O)[C@@H](CC2CCCC2)N(C2CCCC2)c2nc(Nc3cc(Cl)c(O)c(Cl)c3)ncc21 is 97.7

TGI for CN(C)C/C=C/C(=O)Nc1ccc(C(=O)Nc2cccc(Nc3ncc(Cl)c(-c4c[nH]c5ccccc45)n3)c2)cc1 is 0.0295
